# assayed system: human A3AR (Homo sapiens, UniProt P0DMS8)
# Construct: expressed in transfected cells
# Sequence (P0DMS8 1-318): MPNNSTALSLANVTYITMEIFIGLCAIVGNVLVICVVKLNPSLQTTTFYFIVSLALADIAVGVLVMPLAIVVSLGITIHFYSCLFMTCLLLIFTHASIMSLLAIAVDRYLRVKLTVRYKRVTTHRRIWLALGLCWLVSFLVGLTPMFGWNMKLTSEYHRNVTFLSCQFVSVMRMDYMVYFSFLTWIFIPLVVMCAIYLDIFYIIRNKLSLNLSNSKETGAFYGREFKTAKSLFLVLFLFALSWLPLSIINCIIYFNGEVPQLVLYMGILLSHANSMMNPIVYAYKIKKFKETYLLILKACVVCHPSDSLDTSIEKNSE
# measurement notes: LOPAC library primary screen: single concentration (10 μM) inhibition of 25 nM CA200645 binding, PHERAstar FS
# conditions used: % of control wells (1% DMSO and 25 nM CA200645); compounds at 10 µM; […]; mean ± SD, three experiments in duplicate
Where a name gives a salt, the structure may show the parent alone.
Please respond with 1 when measured % 25 nM CA200645 binding is strictly beneath 80%, and with 0 in all other cases.

O=C1Nc2ccccc2/C1=C1/Nc2ccccc2/C1=N\O [Indirubin-3'-oxime] | 1
CN1CCN(C2Cc3ccccc3Sc3ccc(Cl)cc32)CC1.O=C(O)/C=C\C(=O)O (racemic) [(±)-Octoclothepin maleate] | 0
CN1CCN(CCCN2c3ccccc3Sc3ccc(C(F)(F)F)cc32)CC1 [Trifluoperazine dihydrochloride] | 0

# ---- query compound ----
Exercise: Please state whether % 25 nM CA200645 binding is below 80% for O=c1c(O)c(-c2ccc(O)c(O)c2)oc2cc(O)cc(O)c12 [Quercetin dihydrate]
Key: 1

---

# assayed system: human A3AR (Homo sapiens)
# Construct: expressed in transfected cells
# measurement notes: LOPAC library primary screen: single concentration (10 μM) inhibition of 25 nM CA200645 binding, PHERAstar FS
Structures can show the parent of a compound that is named as a salt.
property name: % 25 nM CA200645 binding (%)
Give bare numbers, in %.

Below are worked cases with known answers.
CS(=O)(=O)c1cccc(CNc2nc(Nc3ccc4c(c3)CCC(=O)N4)ncc2C(F)(F)F)c1 | 54.7
NC12CC3CC(CC(C3)C1)C2 [Amantadine hydrochloride] | 104.6
NC(=O)COc1c(F)cc(SCCNS(=O)(=O)c2ccccc2)cc1F | 109.8
S=C([S-])OC1CC2CC1C1CCCC21.[K+] (stereo not drawn) | 95.5
CN1CCC(=C2c3ccccc3CC(=O)c3sccc32)CC1 [Ketotifen fumarate] | 93.8

// each molecule listed below needs its % 25 nM CA200645 binding
1. Cl.N[C@@H](CCC(=O)O)C(=O)O [L-Glutamic acid hydrochloride]
2. Nc1nc(Nc2ccccc2)nc2c1ncn2[C@@H]1O[C@H](CO)[C@@H](O)[C@H]1O [CV1808, 2-phenylaminoadenosine, reference compound]

Key:
[113.0, 55.3]

// each molecule listed below needs its % 25 nM CA200645 binding
1. CC(=O)O[C@H]1Cc2ccccc2N(C(N)=O)c2ccccc21
2. COCCCC/C(=N\OCCN)c1ccc(C(F)(F)F)cc1 [Fluvoxamine maleate]

Key:
1. 110.6
2. 100.9

---

# assayed system: human A3AR (Homo sapiens)
# Construct: expressed in transfected cells
# Sequence (P0DMS8 1-318): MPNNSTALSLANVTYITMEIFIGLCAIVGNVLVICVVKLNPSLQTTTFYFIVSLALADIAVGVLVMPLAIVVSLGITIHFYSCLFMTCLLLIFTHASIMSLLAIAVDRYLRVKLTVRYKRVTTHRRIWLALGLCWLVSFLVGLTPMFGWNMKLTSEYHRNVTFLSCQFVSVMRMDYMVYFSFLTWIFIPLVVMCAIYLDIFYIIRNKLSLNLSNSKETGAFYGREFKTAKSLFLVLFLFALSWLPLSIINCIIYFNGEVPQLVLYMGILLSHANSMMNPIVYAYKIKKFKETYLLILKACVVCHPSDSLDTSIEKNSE
# measurement notes: LOPAC library primary screen: single concentration (10 μM) inhibition of 25 nM CA200645 binding, PHERAstar FS
Provide the reported % 25 nM CA200645 binding of each item.
One number for each entry, in %.

Below are worked cases with known answers.
Nc1nc2c(nc(Br)n2[C@@H]2O[C@@H]3COP(=O)([O-])O[C@H]3[C@H]2O)c(=O)[nH]1.[Na+] [8-Bromo-cGMP sodium] | 102.4
C[C@@H](N)[C@H]1CC[C@H](C(=O)Nc2ccncc2)CC1.Cl.Cl [Y-27632 dihydrochloride] | 98.6
CCOC(=O)[N-]c1cn(N2CCOCC2)n[o+]1 [Molsidomine] | 91.8
NS(=O)(=O)c1cccc2c1c([N+](=O)[O-])cc1nc([O-])c([O-])nc12.[Na+].[Na+] [NBQX disodium] | 94.5
C[C@@H](N)Cc1cnc[nH]1.Cl.Cl | 98.7
NC/C=C/C(=O)O [(E)-4-amino-2-butenoic acid] | 101.5
O=C(O)CCCCCCCC(=O)O [Azelaic acid] | 91.8
O=C(NCCN1CCOCC1)c1ccc(Cl)cc1 [Moclobemide] | 97.8

Exercise: Provide the documented % 25 nM CA200645 binding with human A3AR (Homo sapiens) as the system for "CSc1nc(N)c2ncn([C@@H]3O[C@H](COP(=O)([O-])OP(=O)([O-])OP(=O)([O-])[O-])[C@@H](O)[C@H]3O)c2n1.[Na+].[Na+].[Na+].[Na+]"
Key: 99.0

---

Provide the reported % 25 nM CA200645 binding of each item.
# assayed system: human A3AR (Homo sapiens)
# Construct: expressed in transfected cells
# Sequence (P0DMS8 1-318): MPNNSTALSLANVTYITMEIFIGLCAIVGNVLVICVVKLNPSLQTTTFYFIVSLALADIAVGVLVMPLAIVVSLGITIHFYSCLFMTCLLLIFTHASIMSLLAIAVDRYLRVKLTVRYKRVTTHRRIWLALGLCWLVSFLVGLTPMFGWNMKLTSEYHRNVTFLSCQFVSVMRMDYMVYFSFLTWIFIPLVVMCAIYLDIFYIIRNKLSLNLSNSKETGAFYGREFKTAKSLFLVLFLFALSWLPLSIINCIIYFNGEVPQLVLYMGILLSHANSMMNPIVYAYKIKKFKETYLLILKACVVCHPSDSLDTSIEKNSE
# measurement notes: LOPAC library primary screen: single concentration (10 μM) inhibition of 25 nM CA200645 binding, PHERAstar FS
# conditions used: % of control wells (1% DMSO and 25 nM CA200645); compounds at 10 µM; whole live cells expressing the A3AR; mean ± SD, three experiments in duplicate
One number for each entry, in %.

Below are worked cases with known answers.
CCCCCN(CCCCC)C(=O)C(CCC(=O)O)NC(=O)c1ccc(Cl)c(Cl)c1 (stereo not drawn) [Lorglumide sodium] | 99.4
CC1=C(/C=C/C(C)=C/C=C/C(C)=C/C(=O)Nc2ccc(O)cc2)C(C)(C)CCC1 [Retinoic acid p-hydroxyanilide] | 26.5
N[C@@H](Cc1c[nH]c2ccccc12)C(=O)O | 100.0

// each compound listed below needs its % 25 nM CA200645 binding
1. Cc1nc2ccccn2c(=O)c1CCN1CCC(C(=O)c2ccc(F)cc2)CC1
2. NC(=O)CC[C@H](N)C(=O)O
3. COc1ccc(CCCOC(Cn2ccnc2)c2ccc(OC)cc2)cc1 (stereo not drawn)
4. N#CC(C#N)=Cc1ccc(O)c(O)c1
5. O=C(O)CNC(=O)C(CS)Cc1ccccc1 (racemic)

Key:
1. 88.6
2. 99.9
3. 100.0
4. 84.9
5. 100.0

Exercise: Quick check: % 25 nM CA200645 binding of "O=c1c(-c2ccc(O)cc2)coc2cc(O)cc(O)c12" ?
Key: 66.1

---

# assayed system: human A3AR (Homo sapiens)
# Construct: expressed in transfected cells
# Sequence (P0DMS8 1-318): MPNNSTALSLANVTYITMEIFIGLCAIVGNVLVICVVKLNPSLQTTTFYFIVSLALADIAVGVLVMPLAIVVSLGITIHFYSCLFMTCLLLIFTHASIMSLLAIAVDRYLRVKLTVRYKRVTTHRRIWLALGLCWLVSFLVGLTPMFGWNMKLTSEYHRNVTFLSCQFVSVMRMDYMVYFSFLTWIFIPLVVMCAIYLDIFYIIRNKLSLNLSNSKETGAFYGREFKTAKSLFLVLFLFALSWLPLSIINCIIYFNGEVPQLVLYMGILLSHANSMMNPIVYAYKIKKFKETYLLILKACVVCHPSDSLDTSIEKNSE
# measurement notes: LOPAC library primary screen: single concentration (10 μM) inhibition of 25 nM CA200645 binding, PHERAstar FS
Structures can show the parent of a compound that is named as a salt.
property name: % 25 nM CA200645 binding (%)
One number for each entry, in %.

OCCN1CCN(CCCN2c3ccccc3Sc3ccc(C(F)(F)F)cc32)CC1 [Fluphenazine dihydrochloride] | 98.1

// each molecule listed below needs its % 25 nM CA200645 binding
1. Oc1ccc(O)cc1 [Hydroquinone]
2. CN(C)c1cc2c(Nc3ccc4c(cnn4Cc4ccccc4)c3)ncnc2cn1
3. CN1CC(=O)NC1=NC(=O)Nc1cccc(Cl)c1
4. NC(CO)C(=O)NNCc1ccc(O)c(O)c1O (stereo not shown) [Benserazide hydrochloride]
5. Oc1ccc2ccccc2c1SSc1c(O)ccc2ccccc12

Key:
1. 100.7
2. 57.3
3. 81.9
4. 98.9
5. 63.1

Entry source: paper PMC5733478
